Hey, just so you know, these numbers are from the supplement of paper PMC4862054.

Tested on: HCC1143
method_description: normalised viability (% of control), CellTiter-Blue; higher = more viable cells (100 = DMSO, 0 = benzethonium chloride kill control)
condition_details: incubation time: 72 h
assay_readout: normalised viability
Form entry: enter the amount, then its unit.

[
  {
    "compound": "CNCc1ccc(-c2[nH]c3cc(F)cc4c3c2CCNC4=O)cc1 [Rucaparib] (1 nM)",
    "tgt": "HCC1143",
    "measured_value": "103%"
  }
]

# input Given the entry Oc1nc(-c2ccc(C(F)(F)F)cc2)nc2c1CSCC2 [XAV-939] (1 nM) , what normalised viability was observed with HCC1143?
# output 97.6%

====

System: BT-549
method_description: normalised response (% of control), CellTox Green; higher = less cell death (100 = DMSO, 0 = benzethonium chloride kill control)
condition_details: incubation time: 72 h
assay_readout: normalised response (%)
Could you give me the number in %? Just the number is fine.

Below: 6 compounds and their reported normalised response.
[
  {
    "compound": "CO[C@H]1/C=C\\C=C(/C)C(=O)NC2=CC(=O)C(NCCN(C)C)=C(C[C@@H](C)C[C@H](OC)[C@H](O)[C@@H](C)/C=C(\\C)[C@@H]1OC(N)=O)C2=O [Alvespimycin] (1000 nM)",
    "measured_value": 107
  },
  {
    "compound": "Cc1ccc(C(=O)N(CCCN)[C@@H](c2oc3cc(Cl)ccc3c(=O)c2Cc2ccccc2)C(C)C)cc1 (100 nM)",
    "measured_value": 91.1
  },
  {
    "compound": "CO[C@H]1/C=C\\C=C(/C)C(=O)NC2=CC(=O)C(NCCN(C)C)=C(C[C@@H](C)C[C@H](OC)[C@H](O)[C@@H](C)/C=C(\\C)[C@@H]1OC(N)=O)C2=O [Alvespimycin] (10 nM)",
    "measured_value": 89.8
  },
  {
    "compound": "O=C(O)c1ccc(-c2c[nH]c3ncc(-c4ccccc4)cc23)cc1C1CCCC1 (10000 nM)",
    "measured_value": 99.3
  },
  {
    "compound": "CCCCCCCCCCCCCCCCCCOP(=O)([O-])OC1CC[N+](C)(C)CC1 [Perifosine] (250 nM)",
    "measured_value": 88.6
  },
  {
    "compound": "COc1cc2nccc(Oc3ccc(NC(=O)C4(C(=O)Nc5ccc(F)cc5)CC4)cc3)c2cc1OC [Cabozantinib] (1000 nM)",
    "measured_value": 105
  }
]

# input Which measured normalised response value corresponds to CC1(C)NC(=O)N(c2ccc([N+](=O)[O-])c(C(F)(F)F)c2)C1=O [Nilutamide] (100 nM) ?
# output 98.4

# input Cool, now C[C@@H](Oc1cc(-c2cnn(C3CCNCC3)c2)cnc1N)c1c(Cl)ccc(F)c1Cl [Crizotinib] (1000 nM)
# output 131

# input For Cc1ccc(-n2nc(C(C)(C)C)cc2NC(=O)Nc2ccc(OCCN3CCOCC3)c3ccccc23)cc1 [Doramapimod] (1000 nM) then?
# output 93.2

# input Same question, O=C(CCCCCCC(=O)Nc1ccc([C@H]2O[C@@H](CSc3nc(-c4ccccc4)c(-c4ccccc4)o3)C[C@@H](c3ccc(CO)cc3)O2)cc1)NO [Tubacin] (10000 nM) this time
# output 71.7

# input Quick one: CC(=O)Nc1ccc(C(=O)Nc2ccccc2N)cc1 [Tacedinaline] (10 nM)
# output 85.9

# input Next up: Oc1nc(-c2ccc(C(F)(F)F)cc2)nc2c1CSCC2 [XAV-939] (100 nM)
# output 98.8

# input What do you have for Cn1c(CCCC(=O)O)nc2cc(N(CCCl)CCCl)ccc21 [Bendamustine] (100 nM) ?
# output 101

# input Same read-out for CCC1(c2ccc(N)cc2)CCC(=O)NC1=O (stereo not given) [Aminoglutethimide] (100 nM) ?
# output 98

# input Same question, Cn1c(CCCC(=O)O)nc2cc(N(CCCl)CCCl)ccc21 [Bendamustine] (1000 nM) this time
# output 119

# input Do the same for CN(C)/N=N/c1[nH]cnc1C(N)=O [Dacarbazine] (100 nM) please
# output 96.7

# input Cool, now Clc1ccc(Nc2nnc(Cc3ccncc3)c3ccccc23)cc1 [Vatalanib] (1000 nM)
# output 137

# input How about this compound: CN(N=O)C(=O)N[C@@H](C=O)[C@@H](O)[C@H](O)[C@H](O)CO [Streptozocin] (1000 nM)
# output 99.5

# input And the next one, CN(C)/N=N/c1[nH]cnc1C(N)=O [Dacarbazine] (10000 nM) ?
# output 94.1

# input Here is the next compound: CN[C@@H]1C[C@H]2O[C@@](C)([C@@H]1OC)n1c3ccccc3c3c4c(c5c6ccccc6n2c5c31)C(=O)N[C@H]4O [UCN-01] (10000 nM)
# output 43.8

# input What do you get for Oc1nc(-c2ccc(C(F)(F)F)cc2)nc2c1CSCC2 [XAV-939] (1000 nM) ?
# output 106

# input Moving on to the next compound: Cc1ccc(-n2nc(C(C)(C)C)cc2NC(=O)Nc2ccc(OCCN3CCOCC3)c3ccccc23)cc1 [Doramapimod] (100 nM)
# output 77.5

# input Ok, now CCC1=C[C@@H]2CN(C1)Cc1c([nH]c3ccccc13)[C@@](C(=O)OC)(c1cc3c(cc1OC)N(C)[C@H]1[C@@](O)(C(=O)OC)[C@H](OC(C)=O)[C@]4(CC)C=CCN5CC[C@]31[C@@H]54)C2 [Vinorelbine] (1000 nM)
# output 63.8

# input Let us now turn to C=C(c1ccc(C(=O)O)cc1)c1cc2c(cc1C)C(C)(C)CCC2(C)C [Bexarotene] (10000 nM)
# output 89.8

# input Now give it for Cn1c(Nc2ccc(C(F)(F)F)cc2)nc2cc(Oc3ccnc(-c4ncc(C(F)(F)F)[nH]4)c3)ccc21 [RAF265] (10 nM) too.
# output 98.1

====

Reported values of normalised viability for individual entries
Test system: MDA-MB-468
method_description: normalised viability (% of control), CellTiter-Blue; higher = more viable cells (about 100 = DMSO control)
condition_details: 1000 nM; incubation time: 72 h
Your answer is read as %, so omit the unit and give the number.

# annotated cases, reported normalised viability shown
[
  {
    "compound": "Cc1ccc(-n2nc(C(C)(C)C)cc2NC(=O)Nc2ccc(OCCN3CCOCC3)c3ccccc23)cc1 [Doramapimod]",
    "tgt": "MDA-MB-468",
    "quantity_unit": "%",
    "measured_value": 115
  },
  {
    "compound": "Cc1ccc(C(=O)Nc2ccc(CN3CCN(C)CC3)c(C(F)(F)F)c2)cc1C#Cc1cnc2cccnn12 [Ponatinib]",
    "tgt": "MDA-MB-468",
    "quantity_unit": "%",
    "measured_value": 78.7
  },
  {
    "compound": "CCC1=C[C@@H]2CN(C1)Cc1c([nH]c3ccccc13)[C@@](C(=O)OC)(c1cc3c(cc1OC)N(C)[C@H]1[C@@](O)(C(=O)OC)[C@H](OC(C)=O)[C@]4(CC)C=CCN5CC[C@]31[C@@H]54)C2 [Vinorelbine]",
    "tgt": "MDA-MB-468",
    "quantity_unit": "%",
    "measured_value": 53.6
  },
  {
    "compound": "COc1cc2nccc(Oc3ccc(NC(=O)C4(C(=O)Nc5ccc(F)cc5)CC4)cc3)c2cc1OC [Cabozantinib]",
    "tgt": "MDA-MB-468",
    "quantity_unit": "%",
    "measured_value": 101
  },
  {
    "compound": "CO[C@H]1/C=C\\C=C(/C)C(=O)NC2=CC(=O)C(NCCN(C)C)=C(C[C@@H](C)C[C@H](OC)[C@H](O)[C@@H](C)/C=C(\\C)[C@@H]1OC(N)=O)C2=O [Alvespimycin]",
    "tgt": "MDA-MB-468",
    "quantity_unit": "%",
    "measured_value": 29.3
  }
]

Now examine the next entry.
# input Name the recorded normalised viability for Cn1c(CCCC(=O)O)nc2cc(N(CCCl)CCCl)ccc21 [Bendamustine] .
# output 95

====

Tested on: MDA-MB-231
method_description: normalised viability (% of control), CellTiter-Blue; higher = more viable cells (about 100 = DMSO control)
condition_details: 1000 nM; incubation time: 72 h
Attribute: normalised viability
Give the figure together with its unit, number first.

[
  {
    "smiles_entry": "Cn1c(CCCC(=O)O)nc2cc(N(CCCl)CCCl)ccc21",
    "measured_value": "96.1%"
  }
]

# input Any idea what normalised viability was measured for CO[C@H]1/C=C\C=C(/C)C(=O)NC2=CC(=O)C(NCCN(C)C)=C(C[C@@H](C)C[C@H](OC)[C@H](O)[C@@H](C)/C=C(\C)[C@@H]1OC(N)=O)C2=O ?
# output 28.3%

# input Cc1ccc(-n2nc(C(C)(C)C)cc2NC(=O)Nc2ccc(OCCN3CCOCC3)c3ccccc23)cc1 ?
# output 99%

# input Then this molecule: Cc1ccc(C(=O)N(CCCN)[C@@H](c2oc3cc(Cl)ccc3c(=O)c2Cc2ccccc2)C(C)C)cc1
# output 24.2%

# input Proceed to CC(=O)Nc1ccc(C(=O)Nc2ccccc2N)cc1
# output 115%

# input Entry to check: CCN(CCCOc1ccc2c(Nc3cc(CC(=O)Nc4cccc(F)c4)[nH]n3)ncnc2c1)CCOP(=O)(O)O
# output 81.1%
